These entries and their values trace back to the supplement of paper PMC9732359.

assay: protein stability index of a GFP-peptide fusion (yeast GPS) (PSI 1-4); higher = more stable; sorted into four equal gates, so the index is relative within each strain; settings: san1∆
Mark Satisfied for reported protein stability index of 3 or greater; mark Not satisfied for anything smaller.

{"columns": ["residue_string", "assigned_category"],
 "data": [
  ["EDCVEEFFHLQHYLDTA [QCR6]", "Satisfied"],
  ["PSKKRRRDFGAPANKRP [SMD1]", "Satisfied"],
  ["CRVCSSHTGLIRKYGLN [RPS29A]", "Not satisfied"],
  ["EIKVGKQRFQGCNNLIK [ARP9]", "Satisfied"],
  ["TSLSSKDLSNYRKTEGI [YMR153W/NUP53]", "Satisfied"],
  ["CFCEDHCDKCSVVLTLQ [RPB3]", "Not satisfied"],
  ["AGANDTSNNETNNGNDD [GRR1]", "Not satisfied"],
  ["IMGFISYHNGNLKGRPY [FAS2]", "Satisfied"]
]}

Has DLSISALLGDKIYNFGE [RPN9] a recorded protein stability index greater than or equal to 3? Satisfied

Record LLDKYGKTGLSNMILGS [YML103C/NUP188] ; criterion: protein stability index no lower than 3. Met? Not satisfied
